Target protein (sequence): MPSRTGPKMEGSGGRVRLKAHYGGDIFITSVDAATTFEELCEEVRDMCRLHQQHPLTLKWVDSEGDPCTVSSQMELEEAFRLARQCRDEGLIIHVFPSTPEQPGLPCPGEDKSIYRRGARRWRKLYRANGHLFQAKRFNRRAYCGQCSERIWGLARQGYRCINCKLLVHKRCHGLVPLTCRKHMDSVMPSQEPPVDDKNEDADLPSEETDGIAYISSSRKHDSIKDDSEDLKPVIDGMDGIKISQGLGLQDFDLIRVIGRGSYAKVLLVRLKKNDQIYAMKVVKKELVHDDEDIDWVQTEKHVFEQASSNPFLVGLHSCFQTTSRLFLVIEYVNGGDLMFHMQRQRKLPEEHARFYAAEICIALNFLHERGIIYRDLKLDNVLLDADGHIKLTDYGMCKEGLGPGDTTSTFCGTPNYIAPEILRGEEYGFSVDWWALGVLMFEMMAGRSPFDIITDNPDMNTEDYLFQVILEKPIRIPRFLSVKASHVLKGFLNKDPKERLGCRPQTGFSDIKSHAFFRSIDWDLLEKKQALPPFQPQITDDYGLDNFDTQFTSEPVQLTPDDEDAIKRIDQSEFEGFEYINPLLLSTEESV
MEASURED PARAMETER: IC50 (µM)
Use µM as the unit, but write only the number.

## Input I am curious: what IC50 value has been reported for CC(C)(C)OC(=O)NCC(=O)n1cc(C2=C(c3cn(CCCN=[N+]=[N-])c4ccccc34)C(=O)NC2=O)c2ccccc21 [Example 1] ?
## Output 100
